Entry source: ChEMBL document CHEMBL1201862

- Test system: HL-60
- method-notes: NCI tumour cell line growth inhibition, 48 h
Calls of active or inactive are those of the source. Rule as the data show it: active = GI50 up to about 1.1 µM and inactive = higher.
Respond only with the outcome that fits, drawn from active, inactive

INPUT: Please share the test call associated with COC(=O)CN1Cc2cc(C)cc(c2O)CN(CC(=O)OC)Cc2cc(C)cc(c2O)CN(CC(=O)OC)Cc2cc(C)cc(c2O)C1 .
OUTPUT: inactive

INPUT: Per the records of this test, what outcome belongs to N#CC(NCCc1ccccc1)c1ccccc1 (centres undefined) ?
OUTPUT: inactive

INPUT: I'd appreciate the recorded outcome for CC(=O)O[C@H]1C(=O)[C@]2(C)[C@@H](OC(=O)OCC(O)CO)C[C@H]3OC[C@@]3(OC(C)=O)[C@H]2[C@H](OC(=O)c2ccccc2)[C@]2(O)C[C@H](OC(=O)[C@H](O)[C@@H](NC(=O)c3ccccc3)c3ccccc3)C(C)=C1C2(C)C (some centres undefined) [PACLITAXEL CERIBATE] from this test.
OUTPUT: active

INPUT: # lookup: test call for O=C(CSc1nc(-c2ccccc2)c(-c2ccccc2)[nH]1)NNC(=S)Nc1ccccc1
OUTPUT: inactive

INPUT: What outcome does the record of this test show for C=C(CN)CO[Si](C)(C)C(C)(C)C ?
OUTPUT: inactive

INPUT: Which outcome did this test record for the compound Nc1nnc(-c2ccco2)c(-c2ccco2)n1 ?
OUTPUT: inactive

INPUT: Look up the recorded call for Cc1ccc(-c2cc(-c3ccco3)c(C#N)c(=S)[nH]2)cc1 in this test.
OUTPUT: inactive

INPUT: Would you mind telling me which call this test gave CCc1cccc(CC)c1Nc1nc(-c2ccccc2-c2ccccc2)cs1 ?
OUTPUT: inactive

INPUT: # lookup: test call for CO/C=C(/C(=O)OC)c1ccccc1COc1cccc(C(F)(F)F)c1
OUTPUT: active

INPUT: Could you check what this test reported for COc1cc2c(/C=C3/C(=O)N(c4ccccc4)c4ccccc43)c(Cl)[nH]c2cc1C ?
OUTPUT: inactive

INPUT: How was O=C(Nc1ccccc1[N+](=O)[O-])/C(=N/Nc1cccc(Cl)c1)c1c(O)c2ccccc2oc1=O classified in this test?
OUTPUT: inactive

INPUT: Fill in: this test's call for C=CCN(CC=C)Cn1c(=S)sc2ccccc21 is ___
OUTPUT: inactive

INPUT: Per the records of this test, what outcome belongs to Cc1ccc(-n2c(=S)[nH]c3ccc(Br)cc3c2=O)cc1 ?
OUTPUT: inactive

INPUT: Each compound tested received a call. Report the one for O=C1C=CC2=[N+]([O-])C(c3ccccc3)(c3ccccc3)/C(=N\c3ccccc3)C2=C1 .
OUTPUT: active

INPUT: Given O=C1NC(=O)C(C(=O)C(=O)Nc2ccc(Br)cc2)C(=O)N1 , state the outcome it received in this test.
OUTPUT: inactive
